FYI, the data here is from patent US8415351B2.

In this section, each of the molecules is paired with its reported melting point.

// worked examples, melting point included
| MOLECULE | RESULT |
| --- | --- |
| COc1c(-c2ccc3cc(NS(C)(=O)=O)ccc3c2)cc(-n2ccc(=O)[nH]c2=O)cc1-c1ccc(C)o1 [IB-L0-2.58] | 174 to 178 °C |
| CC(C)(C)c1cc(-n2ccc(=O)[nH]c2=O)cc(-c2ccc3cc(NS(C)(=O)=O)ccc3c2)c1Cl [IB-L0-2.14] | > 280 °C |
| COc1c(-c2ccc3cc(NS(C)(=O)=O)ccc3c2)cc(-n2ccc(=O)[nH]c2=O)cc1C(C)(C)CO [IB-L0-2.54] | 256 to 257 °C |
| COc1c(-c2ccc3cc(NS(C)(=O)=O)ccc3c2)cc(-n2ccc(=O)[nH]c2=O)cc1C(C)(C)C(=O)O [IB-L0-2.77] | > 300 °C |
| COc1c(-c2ccc3cc(NS(C)(=O)=O)ccc3c2)cc(-n2ccc(=O)[nH]c2=O)cc1C(F)(F)C(F)(F)F [IB-L0-2.60] | 162 to 165 °C |
| CCOc1c(-c2ccc3cc(NS(C)(=O)=O)ccc3c2)cc(-n2ccc(=O)[nH]c2=O)cc1C(C)(C)C [IB-L0-2.23] | 196 to 202 °C |

Query molecule follows.
Ask: In one line, give reported melting point of the entry COc1c(C#C[Si](C)(C)C)cc(-n2ccc(=O)[nH]c2=O)cc1-c1ccc2cc(NS(C)(=O)=O)ccc2c1 [IB-L0-2.78] .
Reply: 175 to 178 °C
